# System: Staphylococcus epidermidis
# PROTOCOL_NOTES: Ratio of MBC for Staphylococcus epidermidis to MIC for Staphylococcus epidermidis
# Assay type: functional
Listed compounds paired with reported Ratio
Write the value as a bare number.

{"COMPOUND": "CO[C@H]1/C=C/O[C@@]2(C)Oc3c(C)c(O)c4c(O)c(c5c(nc6cc(C)ccn65)c4c3C2=O)NC(=O)/C(C)=C\\C=C\\[C@H](C)[C@H](O)[C@@H](C)[C@@H](O)[C@@H](C)[C@H](OC(C)=O)[C@@H]1C [RIFAXIMIN]", "TEST_SYSTEM": "Staphylococcus epidermidis", "Ratio": 2}

Sample C=CCN1C(=O)/C(=C/c2ccc(-c3cccc(C(=O)O)c3)o2)SC1=S — what was its Ratio? 2

Tell me the measured Ratio of CO[C@H]1/C=C/O[C@@]2(C)Oc3c(C)c(O)c4c(O)c(c(/C=N/N5CCN(C)CC5)c(O)c4c3C2=O)NC(=O)/C(C)=C\C=C\[C@H](C)[C@H](O)[C@@H](C)[C@@H](O)[C@@H](C)[C@H](OC(C)=O)[C@@H]1C [RIFAMPIN] , please. 1

Would you mind telling me what Ratio value was observed for CO[C@H]1/C=C/O[C@@]2(C)Oc3c(C)c(O)c4c(O)c(c(/C=N/N5CCN(C6CCCC6)CC5)c(O)c4c3C2=O)NC(=O)/C(C)=C\C=C\[C@H](C)[C@H](O)[C@@H](C)[C@@H](O)[C@@H](C)[C@H](OC(C)=O)[C@@H]1C [RIFAPENTINE] ? 2

So what does the record say about Ratio for CC(=O)Nc1c2sscc-2[nH]c1=O [HOLOMYCIN] ? 4

====

# Test system: Staphylococcus epidermidis
# PROTOCOL_NOTES: Antimicrobial activity against Staphylococcus epidermidis
# Type: functional
Overview of reported MIC across a group of compounds:
Give just the number in µg/mL; leave the unit off.

Use the examples below as a reference point.
{"COMPOUND": "C=CCN1C(=O)/C(=C/c2ccc(-c3cccc(C(=O)O)c3)o2)SC1=S", "TEST_SYSTEM": "Staphylococcus epidermidis", "RESULT_UNIT": "µg/mL", "MIC": 12.5}
{"COMPOUND": "CC(=O)Nc1c2sscc-2[nH]c1=O [HOLOMYCIN]", "TEST_SYSTEM": "Staphylococcus epidermidis", "RESULT_UNIT": "µg/mL", "MIC": 12.5}
{"COMPOUND": "CO[C@H]1/C=C/O[C@@]2(C)Oc3c(C)c(O)c4c(O)c(c(/C=N/N5CCN(C)CC5)c(O)c4c3C2=O)NC(=O)/C(C)=C\\C=C\\[C@H](C)[C@H](O)[C@@H](C)[C@@H](O)[C@@H](C)[C@H](OC(C)=O)[C@@H]1C [RIFAMPIN]", "TEST_SYSTEM": "Staphylococcus epidermidis", "RESULT_UNIT": "µg/mL", "MIC": 0.006}

API: the following record is the query input.
I would be grateful if you could share the reported MIC for CO[C@H]1/C=C/O[C@@]2(C)Oc3c(C)c(O)c4c(O)c(c5c(nc6cc(C)ccn65)c4c3C2=O)NC(=O)/C(C)=C\C=C\[C@H](C)[C@H](O)[C@@H](C)[C@@H](O)[C@@H](C)[C@H](OC(C)=O)[C@@H]1C [RIFAXIMIN] . 0.012
